# assay: Determination of phenol pKa values (literature or spectral titration)
# measurement parameters: solution of 100 mM ionic strength maintained with NaCl

{"smiles": "C[C@]12CCc3c(ccc4cc(O)ccc34)[C@@H]1CCC2=O", "pKa": 9.7}

###

# system: tKSI^D40N (ketosteroid isomerase) (Comamonas testosteroni, UniProt P00947, D38N)
# Sequence (P00947 whole entry D38N): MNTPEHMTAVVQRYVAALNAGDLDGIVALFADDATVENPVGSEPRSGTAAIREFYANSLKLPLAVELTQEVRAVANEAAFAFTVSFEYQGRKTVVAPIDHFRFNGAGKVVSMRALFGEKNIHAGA
# assay: biochemical
# Assay type: binding, Commamonas testosteroni
# measurement parameters: apparent affinity, new assay, pH 7
pKd: −log10 of the molar value.

{"smiles": "Oc1ccccc1", "pKd": 3.37}

###

# δ2, chemical shift of second downfield peak in complex listing for each entry below
# system: tKSI^D40N (Comamonas testosteroni, UniProt P00947, D38N)
# Sequence (P00947 whole entry D38N, looked up): as the sequence (P00947 whole entry D38N) above
# Set-up: species or system Commamonas testosteroni
# measurement parameters: pH 7.2, −3 °C
measurement name: δ2, chemical shift of second downfield peak in complex (ppm)

{"smiles": "O=[N+]([O-])c1ccc(O)cc1F", "unit info": "ppm", "experimental result": 14.3}
{"smiles": "Oc1cc(F)cc(C(F)(F)F)c1", "unit info": "ppm", "experimental result": 15.6}
{"smiles": "O=[N+]([O-])c1ccc(O)cc1C(F)(F)F", "unit info": "ppm", "experimental result": 14.5}
{"smiles": "Oc1cccc(Cl)c1", "unit info": "ppm", "experimental result": 15.6}
{"smiles": "Oc1cc(Cl)cc(Cl)c1", "unit info": "ppm", "experimental result": 14.8}
{"smiles": "Oc1cccc(C(F)(F)F)c1", "unit info": "ppm", "experimental result": 16.1}
{"smiles": "Oc1ccc(Cl)c(Cl)c1", "unit info": "ppm", "experimental result": 15.6}
{"smiles": "Oc1cccc(I)c1", "unit info": "ppm", "experimental result": 15.9}
{"smiles": "Oc1ccc(C(F)(F)F)cc1", "unit info": "ppm", "experimental result": 15.9}
{"smiles": "N#Cc1cccc(O)c1", "unit info": "ppm", "experimental result": 15.6}
{"smiles": "Oc1cc(F)c(F)c(F)c1", "unit info": "ppm", "experimental result": 14.9}
{"smiles": "O=[N+]([O-])c1cccc(O)c1", "unit info": "ppm", "experimental result": 15.5}
{"smiles": "CC(=O)c1ccc(O)cc1", "unit info": "ppm", "experimental result": 15.4}
{"smiles": "Oc1cccc(Br)c1", "unit info": "ppm", "experimental result": 15.6}
{"smiles": "O=[N+]([O-])c1ccc(O)cc1", "unit info": "ppm", "experimental result": 14.8}
{"smiles": "O=[N+]([O-])c1cc(O)ccc1Cl", "unit info": "ppm", "experimental result": 15.4}

###

# assay: Determination of phenol pKa values (literature or spectral titration)
# measurement parameters: solution of ionic strength 100 mM maintained with NaCl

{"smiles": "Oc1cc(F)cc(C(F)(F)F)c1", "pKa": 8.2}

###

# system: tKSI^D40N (Comamonas testosteroni, UniProt P00947, D38N)
# Design: species or system Commamonas testosteroni
# measurement parameters: pH 7.2, −3 °C
Recorded δ1, chemical shift of most downfield peak in complex values for a group of compounds are listed next.
measurement name: δ1, chemical shift of most downfield peak in complex (ppm)

{"compound": "N#Cc1cccc(O)c1 [Phenol 3-CN]", "experimental result": 16.4}
{"compound": "Oc1cccc(I)c1 [Phenol 3-I, 3-iodophenol]", "experimental result": 16.8}
{"compound": "O=[N+]([O-])c1cccc(O)c1 [Phenol 3-NO2]", "experimental result": 16.4}
{"compound": "Oc1cccc(C(F)(F)F)c1 [Phenol 3-CF3]", "experimental result": 17.0}
{"compound": "O=[N+]([O-])c1cc(O)ccc1Cl [Phenol 3-NO2-4-Cl]", "experimental result": 15.8}
{"compound": "N#Cc1ccc(O)cc1 [Phenol 4-CN, 4-cyanophenol]", "experimental result": 15.6}
{"compound": "Oc1ccc(C(F)(F)F)cc1 [Phenol 4-CF3]", "experimental result": 16.4}
{"compound": "CC(=O)c1ccc(O)cc1 [Phenol 4-acetyl, 4-Acetylphenol]", "experimental result": 16.0}
{"compound": "Oc1cc(Cl)cc(Cl)c1 [3,5-Cl2]", "experimental result": 16.6}
{"compound": "Oc1cccc(Cl)c1 [Phenol 3-Cl]", "experimental result": 17.1}
{"compound": "Oc1cccc(Br)c1 [Phenol 3-Br]", "experimental result": 17.0}
{"compound": "O=[N+]([O-])c1ccc(O)cc1 [Phenol 4-NO2, 4-nitrophenol]", "experimental result": 15.0}
{"compound": "Oc1cc(F)c(F)c(F)c1 [3,4,5-F3, 3,4,5-trifluorophenol]", "experimental result": 16.3}

###

# assay: Determination of phenol pKa values (literature or spectral titration)
# measurement parameters: spectral titration, 25 °C, ionic strength 100 mM
Marks after values point to notes of the source that are not given here.

{"smiles": "Oc1ccc(F)c(F)c1F", "pKa": "7.7^b"}
{"smiles": "Oc1cccc(F)c1F", "pKa": "7.7^b"}
{"smiles": "Oc1ccc(F)cc1F", "pKa": "8.6^b"}
{"smiles": "O=[N+]([O-])c1cc(O)ccc1Cl", "pKa": 7.8}
{"smiles": "Oc1cc(F)ccc1F", "pKa": "7.7^b"}
{"smiles": "Oc1cc(Cl)cc(Cl)c1", "pKa": 8.1}
